biological target: Peroxisome proliferator-activated receptor gamma (Homo sapiens) (UniProt P37231); experiment: qHTS assay to identify small molecule antagonists of the peroxisome proliferator-activated receptor gamma (PPARg) signaling pathway (AID 743191); details: HEK293H PPARg-UAS-bla, beta-lactamase ratio, antagonist, 17 h; series mostly up to 62.6 µM; further: on the % scale 0 is the no-effect control and ±100 the full control effect; nearly all actives have a fitted effect of over 30% in size
Sequence (P37231 whole entry, looked up): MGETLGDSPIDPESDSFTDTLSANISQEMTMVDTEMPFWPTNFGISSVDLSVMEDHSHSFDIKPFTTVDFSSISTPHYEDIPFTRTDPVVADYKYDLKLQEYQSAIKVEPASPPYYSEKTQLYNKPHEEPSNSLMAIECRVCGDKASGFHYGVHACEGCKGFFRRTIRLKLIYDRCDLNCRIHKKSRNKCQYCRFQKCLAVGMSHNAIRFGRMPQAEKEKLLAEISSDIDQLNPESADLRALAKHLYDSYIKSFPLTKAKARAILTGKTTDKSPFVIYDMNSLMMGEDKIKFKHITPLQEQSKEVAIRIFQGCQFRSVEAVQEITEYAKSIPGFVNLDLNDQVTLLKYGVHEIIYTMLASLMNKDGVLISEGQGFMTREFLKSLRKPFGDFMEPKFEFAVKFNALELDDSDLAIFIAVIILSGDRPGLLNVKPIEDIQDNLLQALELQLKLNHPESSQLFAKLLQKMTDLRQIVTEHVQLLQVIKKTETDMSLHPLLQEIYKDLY
Results filed as inconclusive are left out. Activity calls are given as the source filed them. The call rests on the fitted dose curve.
Assay Endpoint: ratio activity, negative = inhibition

C[C@@H]1NC(=O)[C@@H](N)CNC(=O)[C@H](C2CCNC(N)=N2)NC(=O)/C(=C/NC(N)=O)NC(=O)[C@H](CNC(=O)C[C@@H](N)CCCN)NC1=O (stereo partly specified) : 0.698% [at 0.55 µM] (inactive)
CC(C)CC(O)Cc1ccccc1 (stereo unspecified) : inactive
BrCCOc1ccccc1 : inactive
CCCCCCC(O)CO (stereo unspecified) : inactive
C/C=C(\C)C(=O)OC/C=C(\C)CCC=C(C)C : inactive

# evaluate next
Could you please provide reported ratio activity, negative = inhibition for COC(=O)C(c1ccccc1Cl)N1CCc2sccc2C1 (stereo unspecified) ? Thanks! inactive
